System: BIKE
Construct: gene BMP2K
Settings: concentration: 1 μM, replicates: in singlicate; n = 1;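 further: KINOMEscan kinase panel screen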
Threshold check on %Inh: strictly below 30% is class 1; on or above 30% is class 0.

# example entries with known answers
> print(dat)
                               given.smiles  class.name
1  Cc1ccc(C)c(NC(=O)Nc2ccc(C)c(-c3ccc(C(=O)Nc4ccncc4)cc3)c2)c1     class 1
2  Cn1cc(-c2ccc3c(c2)CCN3C(=O)Cc2cc(F)cc(F)c2F)c2c(N)ncnc21     class 0
3  CSc1ccc(NC2=C(c3ccc(Cl)cc3)C(=O)NC2=O)cc1     class 1
4           Nc1cccc(-c2ccc3c(N)n[nH]c3c2)c1     class 0

Now take the following compound into account.
Ask: Just wondering, is %Inh of "Cc1nn2c(=O)cc(N3CCO[C@H](C)C3)nc2n1Cc1cccc(Cl)c1Cl" below 30%?
Reply: class 1

----------
Tested on: PIK3C2B
Conditions: concentration: 1 μM, replicates: in singlicate; n = 1
Listed here are compounds together with their documented %Inh.
A number alone suffices; assume %.

# example entries with known answers
> print(dat)
                                   compound  obs.value
1  CCNc1nccc(-c2c(-c3ccc(F)cc3)ncn2C2CCN(C)CC2)n1          1
2  Cc1cc(-c2ccnc(Nc3cccc(C#N)c3)n2)cc(C)c1O [GSK1440913]          0
3  Cc1nn2c(=O)cc(N3CCO[C@H](C)C3)nc2n1Cc1cccc(Cl)c1Cl [GSK2373693]       99.4
4  Cc1cc(-c2c(-c3ccc(F)cc3)ncn2CCCN2CCOCC2)nc(N)n1 [SB-222517]         28

Could you now look at the following compound, please?
Ask: Given the entry CC(C)c1nc(-c2cccc(NS(=O)(=O)c3c(F)cccc3F)c2)c(-c2ccnc(Nc3ccc(N4CCOCC4)nc3)n2)s1.Cl [GSK1723980] , report its measured %Inh.
Reply: 7

----------
Listed here are compounds together with their documented %Inh.
Tested on: AURKB
Details: concentration: 1 μM, replicates: in singlicate; n = 1
A number alone suffices; assume %.

> print(dat)
                                   compound  assay.readout  obs.value
1          CNc1nccc(-c2ccc3c(N)n[nH]c3c2)n1           %Inh          0
2  Cc1cccc(Nc2nc(N[C@H]3CCCC[C@H]3N)ncc2C(N)=O)c1.Cl           %Inh         24
3  Cc1ccc(C)c(NC(=O)Nc2ccc(C)c(-c3ccc(C(=O)Nc4ccncc4)cc3)c2)c1           %Inh         21
4  Cc1ccc(NC(=O)c2ccc(Cl)c(Cl)c2)cc1-c1ccc(C(=O)Nc2ccncc2)cc1           %Inh          1

Ask: For AURKB, provide %Inh of "N#CC1(c2cccc(C(=O)Nc3cccc(Oc4ccc5nc(NC(=O)C6CC6)sc5n4)c3)c2)CC1" please.
Reply: 57

Ask: Request: "CN(c1ccc(F)c(NC(=O)c2cccc(OC(C)(C)C#N)c2Cl)c1)c1ccc2nc(NC(=O)C3CC3)sc2n1"
Reply: 4

Ask: Request: Cc1ccc(-c2ccc3occ(-c4ccc(S(C)=O)cc4)c3c2)nn1 (stereo not shown)
Reply: 3

Ask: Request: "Cc1nn2c(=O)cc(N3CCO[C@H](C)C3)nc2n1Cc1cccc(Cl)c1Cl"
Reply: 17

Ask: Request: "O=C1NC(=O)C(c2ccccc2Cl)=C1Nc1cccc(Cl)c1"
Reply: 22

Ask: Request: "O=C(Nc1n[nH]c2nc(-c3cccc(O)c3)ccc12)C1CC1"
Reply: 19

Ask: Request: "CCNc1nccc(-c2c(-c3ccc(F)cc3)ncn2C2CCN(C)CC2)n1"
Reply: 0

Ask: Request: "CC(C)(C)c1ccc(C(=O)Nc2cn3cc(-n4ccnc4)ccc3n2)cc1"
Reply: 24
